Experiment: JC-1 mitochondrial potential readout, lung cancer cells – cell-based, A549, JC-1 fluorescence, basal, 24 h, 100 nL, profiling panel (AID 1138);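 further: A549 lung adenocarcinoma cells under basal conditions with no added stimulus; test concentration not given here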
Conditions: higher = more signal
PROPERTY MEASURED: z-score
Output: the number by itself.

Below, 3 molecules whose answers are already recorded.
INPUT SMILES | ASSAY VALUE
CC(C)(C)OC(=O)COc1cccc(C(=O)CCN2CCOCC2)c1 | 0.583
COCCOC(=O)N1C(=O)[C@@]2(c3ccccc31)[C@H](C(=O)NC[C@H](O)c1ccccc1)[C@H]1C(=O)O[C@H](c3ccccc3)[C@H](c3ccccc3)N1[C@@H]2c1ccc(O)cc1 | -1.17
COc1ccc([Si](C)(C)[C@@H]2[C@@H](CCO)O[C@]3(C(=O)N(Cc4cccc(NC(=O)[C@H](C)O)c4)c4ccccc43)[C@H]2C)cc1 | -1.52

Now examine the next entry.
# query: z-score of entry "CC(C)N1C(=O)c2ccccc2[C@@H](C(=O)NCCN2CCOCC2)[C@@H]1c1ccc(CO)cc1"
0.156

* * *

Assay: budding yeast growth changes without added modifier – OD600, strain BY4716, 24 h, basal condition, primary screen (AID 1173)
Settings: S. cerevisiae BY4716 growth, OD600, 24 h; higher = more signal, called active from +8 up or from −8 down
Would you mind labelling by z-score? At or over 0.6 is yes (1), under is no (0).

Study these solved cases before continuing.
COMPOUND | ASSIGNED LABEL
CC(C)C(CO)N1C(=O)[C@@H]2[C@H]3C(=O)OCC=C[C@H]3OC23C=CCN(c2ccc(Cl)cc2)C(=O)[C@@H]13 (stereo not given in full) | yes (1)
COCCCNC(=O)[C@@]1(CCC(=O)OC(C)(C)C)N=C(c2ccc(OCCCO)cc2)O[C@H]1c1ccccc1N=[N+]=[N-] | no (0)
CC(C)C(CO)N1C(=O)[C@@H]2C3C(=O)OCCC/C=C\[C@H]3OC23C=CCN(Cn2nnc4ccccc42)C(=O)[C@@H]13 (stereo not given in full) | no (0)

Is z-score for "CCCC=C(CCC)[C@@H](NP(=O)(c1ccccc1)c1ccccc1)c1ccc(-c2ccccc2)cc1" at or above 0.6?
yes (1)

Is z-score for "CC1=C2[C@@H](CCc3ccccc3)OB(O)C[C@@H]2[C@@H]2C(=O)N(Cc3ccccc3)C(=O)[C@@H]2C1" at or above 0.6?
no (0)

Is z-score for CC(CO)N1C(=O)[C@]2(C)C3C(=O)OCCC/C=C\[C@H]3OC23C=CCN(c2ccc(Cl)cc2)C(=O)[C@@H]13 (stereo not given in full) at or above 0.6?
no (0)

Is z-score for "COc1ccc(CCNC(=O)[C@@]2(c3ccc([N+](=O)[O-])cc3)CC(=O)N(C3CCCCC3)[C@@H]2c2ccc(CO)cc2)cc1" at or above 0.6?
no (0)

Is z-score for "COc1cccc(C)c1NC(=O)O[C@H]1[C@H](OC(=O)Nc2ccccc2-c2ccccc2)[C@H](OC(=O)Nc2ccccc2-c2ccccc2)[C@@H](OC)O[C@@H]1CO" at or above 0.6?
no (0)

* * *

System: Lefty1
Assay: Lefty1 protein binding to printed compounds – biochemical, small-molecule microarray, 635/667 nm fluorescence, primary screen (AID 1139)
Conditions: fluorescence 635/667, higher = more signal
Recorded composite z-score by entry

Below, 3 compounds whose answers are already recorded.
COMPOUND | SYSTEM NAME | PROPERTY MEASURED | ASSAY VALUE
O=C1OCCC=C[C@H]2OC34C=CCN(c5ccc6ccccc6c5)C(=O)[C@H]3N(CCCO)C(=O)[C@@H]4C12 (some centres undefined) | Lefty1 | composite z-score | -1.81
NCCCCCNC(=O)[C@H]1C[C@H]2C(=O)N3CCC[C@H]3C(=O)N2[C@H]1c1cccc(OCCO)c1 | Lefty1 | composite z-score | -0.285
C=C[C@@H](CO)N(Cc1ccc(OC)cc1)S(=O)(=O)c1ccc(Br)cc1 | Lefty1 | composite z-score | -0.327

Now examine the next entry.
# query: composite z-score of entry "COC(=O)[C@@]1(Cc2ccc(F)cc2)[C@H]2c3cc(C(=O)N(C)C)n(CCc4ccc(OC)c(Br)c4)c3C[C@H]2CN1C(=O)c1ccccc1"
-0.337
